The measurements presented in this section are drawn from the supplement of paper PMC10567573.

B1: TRIB1 (parent)
chain: EIGTSDQIVPEYQEDSDISSFFC

variants of: B1; assay: protein stability index of a GFP-peptide fusion (GPS, HEK-293T) (PSI 1-6); higher = more stable; conditions: c terminus: native;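 also: lentivirally expressed fusions sorted by FACS into six bins by GFP to DsRed ratio, PSI derived from sequencing read proportions per bin multiplied by bin number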
protein stability index vs 3: at or above is T, below is F.

// below: answered variants
alteration=I2H label_class=T
alteration=I2E label_class=T
alteration=E14H label_class=T
alteration=F22R label_class=T
alteration=Q13I label_class=F

Q: Entry G3L : is its protein stability index no less than 3?
Result: F

Q: Entry Q7F : is its protein stability index no less than 3?
Result: T
